biological target: human cannabinoid receptor type II (CB2R) (Homo sapiens); assay: cell-based; assay type: cell-based; set-up: MFα (mating factor alpha) pre-pro leader (N); expressed in transfected cells; host or cells: Saccharomyces cerevisiae BY4741-derived biosensor strain (Gpa1-Gαi3 chimera, ZsGreen reporter); sterol-modified strain ST03 for the screens, pH 5.8; conditions: EC50, dose response with CB2R, WT CB2R (no leader)
Sequence (P34972 whole entry): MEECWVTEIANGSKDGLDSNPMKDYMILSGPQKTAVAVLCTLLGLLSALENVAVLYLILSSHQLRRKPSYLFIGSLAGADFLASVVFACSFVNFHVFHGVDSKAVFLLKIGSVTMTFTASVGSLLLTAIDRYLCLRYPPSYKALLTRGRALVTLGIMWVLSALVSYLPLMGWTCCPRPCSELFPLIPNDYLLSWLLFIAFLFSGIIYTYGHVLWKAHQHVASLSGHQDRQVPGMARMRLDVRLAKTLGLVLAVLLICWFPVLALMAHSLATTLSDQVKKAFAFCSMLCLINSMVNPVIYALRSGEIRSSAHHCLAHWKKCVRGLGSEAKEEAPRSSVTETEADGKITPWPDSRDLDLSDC
measuredAttribute: EC50 (nM)
Give the value in nM but do not write nM after it.

CCCCC/C=C\C/C=C\C/C=C\C/C=C\CCCC(=O)OC(CO)CO has a reported EC50 of 70

###

target: human cannabinoid receptor type II (CB2R) (Homo sapiens); assay: cell-based; format: cell-based; settings: Ste2 signal sequence CB2R; read-out: EC50, dose response with CB2R
measuredAttribute: EC50
Please report the result as a number followed by the unit.

Param item: CCCCC/C=C\C/C=C\C/C=C\C/C=C\CCCC(=O)OC(CO)CO ; param system: human cannabinoid receptor type II (CB2R) (Homo sapiens); output EC50: 150 nM
